Numbers sourced from patent US20210238162A1.

Biological target: haematopoietic prostaglandin D synthase (H-PGDS) (Homo sapiens)
Construct: Full length human H-PGDS cDNA (Invitrogen Ultimate ORF IOH13026) was amplified by PCR; made in house; host or cells: E. coli BL21 (DE3*), vector pET22b+
Sequence (O60760 whole entry): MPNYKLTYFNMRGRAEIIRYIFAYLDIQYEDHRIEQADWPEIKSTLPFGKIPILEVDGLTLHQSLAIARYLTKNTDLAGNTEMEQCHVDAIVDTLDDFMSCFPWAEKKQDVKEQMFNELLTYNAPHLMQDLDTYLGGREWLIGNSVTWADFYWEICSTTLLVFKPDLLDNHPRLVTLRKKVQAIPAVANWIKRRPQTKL
Test: H-PGDS RapidFire High Throughput Mass Spectrometry Assay
Format: biochemical
Settings: H-PGDS RapidFire MS assay, mean pIC50; read-out: Potency Range (mean pIC50) (converted)
VALUE_KIND: IC50

O=C(NC1CC2(CC(NCC(F)(F)F)C2)C1)c1cnc2cc(OC(F)F)c(F)cc2c1 (racemic) [Example 61] yielded IC50 of 10 to 79.4 nM

O=C(NC1CCc2ccccc2NC1=O)c1cnc2cc(OC(F)F)c(Cl)cc2c1 (stereo not shown) [Example 237] yielded IC50 of < 10 nM

CC1CCN1c1cc2ncc(C(=O)N[C@H]3CCNC3=O)cc2cc1F (mixture of isomers) [Example 171] yielded IC50 of 10 to 79.4 nM

CC(C)Nc1cc2ncc(C(=O)N[C@H]3CC[C@H](C(C)(C)O)CC3)cc2cc1Cl [Example 212] yielded IC50 of < 10 nM
